# Test system: SN12C renal
# protocol_details: NCI-60 one-dose screen, 48 h
# applied_conditions: 10 µM unless noted
Compounds without any hit were thinned out: in the full panel of roughly 83,000, 20% have a hit. The source made the active and inactive calls. How the source made its calls: active means growth percent below 10; inactive means the rest.
Respond only with the outcome that fits, drawn from y for active, n for inactive

* CCCCCCCCCCCC(=O)C(CCCCCCCCCC)C(=O)Nc1ccccc1 (stereo not given) | n
* N#C/C(=C\c1ccc(Br)cc1)n1nnc2cccc(F)c21 | y
* COc1cc(Nc2cc(O)c3c(=O)cc(-c4ccccc4)oc3c2)cc(OC)c1 | n
* COc1ccncc1C#Cc1cncc(C(=O)Nc2ccc(CN3CCN(C)CC3)c(C(F)(F)F)c2)c1 | n

As a next step, examine the compound that follows.
// param item: O=C(NNc1nc(Cl)nc(N2CCN(C(c3ccccc3)c3ccccc3)CC2)n1)c1ccccc1 ; yields the recorded call y

---

# System: IGROV1 ovarian
# protocol_details: NCI-60 one-dose screen, 48 h
# applied_conditions: 10 µM unless noted
The panel holds about 83,000 compounds, 20% with a hit somewhere; the sample as a whole holds those more often. Calls of active or inactive are those of the source. Rule for the calls: active = growth percent below 10; inactive = the rest.
Respond only with the outcome that fits, drawn from t (active), f (inactive)

Recorded results for 5 compounds are shown here.
• Cc1cc2cc3cc(C)c(N)cc3[n+](C)c2cc1N = f
• Brc1ccc(C2CC(c3cccc(Nc4ccncc4)c3)=NN2c2ccccc2)cc1 (stereo unspecified) = f
• CCOc1cc(CNc2ccc(N3CCOCC3)c(C(=O)O)c2)ccc1OC = f
• CC(=O)OCC(=O)[C@@]1(O)CC[C@H]2[C@@H]3CC(=C(Br)Br)C4=CC(=O)CC[C@]4(C)[C@H]3C(=O)C[C@@]21C = f
• CC(=O)Nc1ccc(C(=O)Nc2cc(-c3ccccc3)ccc2N)cc1 = f

// param item: OC(c1ccccc1)c1ccccn1 (stereo unspecified) ; yields the recorded call f

// param item: C#Cc1cccc(NC(=O)Nc2cccc(N=C=S)c2)c1 ; yields the recorded call f

// param item: Cn1c(COC(=O)NCCn2ccnc2)nc2c(N3CCOCC3)nc(-c3ccccc3)nc21 ; yields the recorded call t

---

# System: DU-145 prostate
# protocol_details: NCI-60 one-dose screen, 48 h
# applied_conditions: 10 µM unless noted
This is part of a sample that, as a whole, favours compounds with a hit. Of some 83,000 tested, about 20% had one in any assay. Active and inactive are the calls of the source. The calls were made as follows: active = growth percent below 10; inactive = the rest.
Respond only with the outcome that fits, drawn from active, inactive

Recorded results for 8 compounds are shown here.
- COc1ccc(-c2nc(N=Nc3c(O)[nH]c4ccccc34)nc(N3CCOCC3)c2C#N)cc1: inactive
- COc1cc2nc(-c3ccc(-c4nn[nH]n4)cc3)[nH]c(=O)c2cc1OC: inactive
- N/C(=N\N=C\c1cc2ccccc2s1)N/N=C/c1cc2ccccc2s1: inactive
- O=C(Cc1ccc(/C=C/C(=O)c2ncc[nH]2)cc1)Nc1ccc(C(F)(F)F)cc1: inactive
- Cc1n[nH]c(C)c1-c1c(C)n[nH]c1C: active
- O=C(OCc1nc2nc(Cl)nc(N3CCOCC3)c2[nH]1)n1ccnc1: active
- C#CC(=O)Nc1cccc2c1cc(C)n2-c1nc2c(c(NCc3ccccc3)n1)CCCC2: active
- C=C1C(=O)O[C@H]2[C@H]1CC/C(CNC(=O)/C=C/c1ccc(Br)cc1)=C\CC[C@@]1(C)O[C@@H]21: active

// param item: COc1cccc(CCC(=O)c2cc3c(N)c(C(=O)Nc4ccccc4)sc3nc2C)c1 ; yields the recorded call inactive

// param item: O=C(N/N=C/c1ccncc1)c1ccccc1Nc1cccc(C(F)(F)F)c1 ; yields the recorded call inactive
